Measured pIC50 values are reported for all entries that follow.
Format: cell-based
Assay setup: human, HUVECs (human umbilical vein endothelial cells)
pIC50: −log10 of the molar value.

Please review the entries below; each comes with its answer.
Query block: Requested field: pIC50. Item: O=C(O)CC[P+](c1ccccc1)(c1ccccc1)c1ccccc1.[Br-] [TPPBr, reference compound]
Result block: < 4.00

Query block: Requested field: pIC50. Item: O=C(NCC[P+](c1ccccc1)(c1ccccc1)c1ccccc1)c1ccc(C(=O)Oc2cc3ccccc3cc2C(=O)O)cc1.[Br-]
Result block: < 4.00

Continue with the compound presented below.
Query block: Requested field: pIC50. Item: O=C(NCC[P+](c1ccccc1)(c1ccccc1)c1ccccc1)c1ccc(-c2oc3cc4ccccc4cc3c(=O)c2O)cc1.[Br-]
Result block: 5.42

Measured values drawn from paper PMC6117112 for this set.
